inhibition for assorted compounds
# assayedSystem: Sulfhydryl oxidase 1 (Homo sapiens) (UniProt O00391)
# Sequence (O00391 whole entry, looked up): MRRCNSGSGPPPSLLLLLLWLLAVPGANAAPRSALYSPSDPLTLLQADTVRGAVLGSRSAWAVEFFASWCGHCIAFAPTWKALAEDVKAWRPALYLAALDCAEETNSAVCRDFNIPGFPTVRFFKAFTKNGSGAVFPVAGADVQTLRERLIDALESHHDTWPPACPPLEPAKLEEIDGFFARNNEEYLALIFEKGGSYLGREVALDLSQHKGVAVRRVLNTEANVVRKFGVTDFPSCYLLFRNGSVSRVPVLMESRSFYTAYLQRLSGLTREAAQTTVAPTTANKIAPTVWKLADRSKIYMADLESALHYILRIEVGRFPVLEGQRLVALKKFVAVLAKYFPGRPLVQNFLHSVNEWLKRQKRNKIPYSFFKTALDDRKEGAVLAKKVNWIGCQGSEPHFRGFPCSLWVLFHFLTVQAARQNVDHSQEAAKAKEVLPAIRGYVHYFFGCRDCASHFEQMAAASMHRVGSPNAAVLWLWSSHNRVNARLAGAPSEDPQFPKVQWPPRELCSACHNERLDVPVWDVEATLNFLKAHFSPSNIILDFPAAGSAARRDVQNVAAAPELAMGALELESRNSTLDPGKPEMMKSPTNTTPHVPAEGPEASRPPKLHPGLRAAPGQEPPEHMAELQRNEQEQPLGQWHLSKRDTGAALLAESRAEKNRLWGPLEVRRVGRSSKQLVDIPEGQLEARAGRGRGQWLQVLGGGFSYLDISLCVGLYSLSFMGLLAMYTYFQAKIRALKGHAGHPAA
# experimentSummary: inhibition of human sulfhydryl oxidase QSOX1 – biochemical, HyperBlu H2O2 luminescence, HTS, primary screen (AID 1347420); note: values above 100% were filed as inconclusive
# appliedConditions: recombinant QSOX1, HyperBlu H2O2 luminescence; at 12.5 µM; hits give high values; active = any value above zero
In all, about 1,300 compounds went through this assay and about 980 (75%) were called active. Roughly 4% stayed inconclusive and do not appear here. Some of the results follow.
Please reply with the bare figure in % and do not write the unit itself.

In the examples that follow, each entry is paired with its recorded inhibition.
{"columns": ["compound", "reportedValue"],
 "data": [
  ["CCN(CC)CCOC(=O)c1cc(Cl)c(N)cc1OC", 7.6],
  ["O=c1[nH]c(=O)c2nc3ccccc3nc2[nH]1", 3.9],
  ["O=C(C1CCCCC1)N1CC(=O)N2CCc3ccccc3C2C1 (centres undefined)", 8]
]}

Which value of inhibition has been reported for CC(=O)N1CCN(c2ccc(OC[C@H]3CO[C@](Cn4ccnc4)(c4ccc(Cl)cc4Cl)O3)cc2)CC1 in the records?
56.3

###

# assayedSystem: Sulfhydryl oxidase 1 (Homo sapiens) (UniProt O00391)
# experimentSummary: inhibition of human sulfhydryl oxidase QSOX1 – biochemical, HyperBlu H2O2 luminescence, HTS, primary screen (AID 1347420); note: values above 100% were filed as inconclusive
# appliedConditions: recombinant QSOX1, HyperBlu H2O2 luminescence; at 12.5 µM; hits give high values; active = any value above zero
Out of some 1,300 compounds screened, about 980 (75%) were called active. Roughly 4% stayed inconclusive and do not appear here. The list shows a part of the results.
Pick one and only one: T (active), F (inactive)

{"columns": ["molecule", "classification"],
 "data": [
  ["Nc1nc(OCC2CCCCC2)c2[nH]cnc2n1", "T"],
  ["C=CCN1CCc2cc(O)c(O)cc2C(c2ccccc2)C1 (stereo not drawn)", "T"],
  ["CCOC(=O)N1CCN(/[N+]([O-])=N/Oc2ccc([N+](=O)[O-])cc2[N+](=O)[O-])CC1", "T"],
  ["CCn1nc(C(=O)O)c(=O)c2cc3c(cc21)OCO3", "F"]
]}

Recorded test call requested for N[C@@H](COP(=O)(O)O)C(=O)O
T

Recorded test call requested for CN[C@H](CC(=O)O)C(=O)O
T

Recorded test call requested for COc1ccc(CCN(C)CCc2ccc(OC)c(OC)c2)cc1OC
T

Recorded test call requested for NC(CCCP(=O)(O)O)C(=O)O (stereo not drawn)
T

###

inhibition for assorted molecules
# assayedSystem: Sulfhydryl oxidase 1 (Homo sapiens) (UniProt O00391)
# experimentSummary: inhibition of human sulfhydryl oxidase QSOX1 – biochemical, HyperBlu H2O2 luminescence, HTS, primary screen (AID 1347420); note: values above 100% were filed as inconclusive
# appliedConditions: recombinant QSOX1, HyperBlu H2O2 luminescence; at 12.5 µM; hits give high values; active = any value above zero
Out of some 1,300 compounds screened, about 980 (75%) were called active. Not shown: some 4% with an inconclusive outcome. The list shows a part of the results.
Please reply with the bare figure in % and do not write the unit itself.

{"columns": ["molecule", "inhibition (%)"],
 "data": [
  ["CC(C)(C)NCC(O)COc1nsnc1N1CCOCC1 (stereo unspecified)", 3.8],
  ["[Li+]", 6.5],
  ["C=C1C[C@@]23CC[C@H]4[C@@](C)(CCC[C@@]4(C)C(=O)OC4OC(CO)C(O)C(O)C4O)[C@@H]2CCC1(OC1OC(CO)C(O)C(O)C1OC1OC(CO)C(O)C(O)C1O)C3 (stereo partly specified)", -13.9],
  ["CCCC(CCC)C(=O)O", 40.8],
  ["C[C@H]1O[C@@H](n2cc(F)c(=O)[nH]c2=O)[C@H](O)[C@@H]1O", 20]
]}

Which value of inhibition has been reported for COC(=O)C(N)Cc1ccc(Cl)cc1 (stereo unspecified) in the records?
-8.3

Which value of inhibition has been reported for Nc1ccc(N2C(=O)c3ccccc3C2=O)c(Cl)c1 in the records?
7.7

Which value of inhibition has been reported for N=C(N)SCCc1cnc[nH]1 in the records?
-0.5

Which value of inhibition has been reported for N[C@@H](Cc1ccc(F)cc1)C(=O)O in the records?
-2.9

Which value of inhibition has been reported for NCCc1cnc[nH]1 in the records?
10.9

Which value of inhibition has been reported for NCCCS(=O)(=O)O in the records?
14.2

###

# assayedSystem: Sulfhydryl oxidase 1 (Homo sapiens)
# experimentSummary: inhibition of human sulfhydryl oxidase QSOX1 – biochemical, HyperBlu H2O2 luminescence, HTS, primary screen (AID 1347420); note: values above 100% were filed as inconclusive
# appliedConditions: recombinant QSOX1, HyperBlu H2O2 luminescence; at 12.5 µM; hits give high values; active = any value above zero
The whole screen tested about 1,300 compounds, of which about 980 (75%) were called active. Not shown: some 4% with an inconclusive outcome. This is one part of the list.
Pick one and only one: Yes (active), No (inactive)

A selection of reference data follows.
{"columns": ["cpdSmiles", "classification"],
 "data": [
  ["Nn1nnc2ccccc21", "Yes"],
  ["CC[N+](CC)(CC)CC", "No"]
]}

Recorded test call requested for Cc1ccc([N+](=O)[O-])cc1S(=O)(=O)N(C)C
No

Recorded test call requested for CCCN1C[C@H](CSC)C[C@@H]2c3cccc4[nH]cc(c34)C[C@H]21
Yes

Recorded test call requested for NOCC(=O)O
Yes

Recorded test call requested for COc1ccc(-c2cc3ncc(C)n3c(Nc3ncccc3C(N)=O)n2)cc1OC
Yes

###

# assayedSystem: Sulfhydryl oxidase 1 (Homo sapiens)
# experimentSummary: inhibition of human sulfhydryl oxidase QSOX1 – biochemical, HyperBlu H2O2 luminescence, HTS, primary screen (AID 1347420); note: values above 100% were filed as inconclusive
# appliedConditions: recombinant QSOX1, HyperBlu H2O2 luminescence; at 12.5 µM; hits give high values; active = any value above zero
Hit rate of the full screen: of about 1,300 compounds, about 980 (75%) were called active. Another 4% or so got no clear call; they are omitted. This is one part of the list.
Answer -1 if inhibition is under 20%, and 1 if it is 20% or more.

A selection of reference data follows.
{"columns": ["molecule", "classification"],
 "data": [
  ["COC1=C(OC)C(=O)c2ccccc2C1=O", 1],
  ["CC1=NS(=O)(=O)c2cc(Cl)ccc2N1", 1],
  ["CN1C(=O)CC[C@H]1c1cccnc1", -1]
]}

Could you verify whether the entry CNCCC=C1c2ccccc2CCc2ccccc21 shows inhibition of no less than 20%?
-1

Could you verify whether the entry CNCC(O)c1ccc(O)c(O)c1 (stereo not given) shows inhibition of no less than 20%?
1

Could you verify whether the entry CC(=O)[C@H]1CC[C+]2C3CC=C4C[C@@H](OS(=O)(=O)[O-])CC[C@]4(C)C3CC[C@@]21C (stereo not given in full) shows inhibition of no less than 20%?
-1

Could you verify whether the entry CCOC(=O)C12CC1/C(=N/O)c1ccccc1O2 (stereo not given) shows inhibition of no less than 20%?
-1

Could you verify whether the entry COc1nc(C)nc(Cl)c1NC1=NCCN1 shows inhibition of no less than 20%?
-1

Could you verify whether the entry NCCCCC(=O)O shows inhibition of no less than 20%?
-1

Could you verify whether the entry NCCCC(=O)O shows inhibition of no less than 20%?
1
